Biological target: T1, cynomolgus monkey transferrin receptor 1 (cTfR1) (cynomolgus monkey (Macaca fascicularis), UniProt Q5RDH6 89-760 (Pongo abelii entry), limits assumed)
T1 construct: Recombinant cynomolgus TfR1; also called cyTfR1; cyno TfR1
T1 chain: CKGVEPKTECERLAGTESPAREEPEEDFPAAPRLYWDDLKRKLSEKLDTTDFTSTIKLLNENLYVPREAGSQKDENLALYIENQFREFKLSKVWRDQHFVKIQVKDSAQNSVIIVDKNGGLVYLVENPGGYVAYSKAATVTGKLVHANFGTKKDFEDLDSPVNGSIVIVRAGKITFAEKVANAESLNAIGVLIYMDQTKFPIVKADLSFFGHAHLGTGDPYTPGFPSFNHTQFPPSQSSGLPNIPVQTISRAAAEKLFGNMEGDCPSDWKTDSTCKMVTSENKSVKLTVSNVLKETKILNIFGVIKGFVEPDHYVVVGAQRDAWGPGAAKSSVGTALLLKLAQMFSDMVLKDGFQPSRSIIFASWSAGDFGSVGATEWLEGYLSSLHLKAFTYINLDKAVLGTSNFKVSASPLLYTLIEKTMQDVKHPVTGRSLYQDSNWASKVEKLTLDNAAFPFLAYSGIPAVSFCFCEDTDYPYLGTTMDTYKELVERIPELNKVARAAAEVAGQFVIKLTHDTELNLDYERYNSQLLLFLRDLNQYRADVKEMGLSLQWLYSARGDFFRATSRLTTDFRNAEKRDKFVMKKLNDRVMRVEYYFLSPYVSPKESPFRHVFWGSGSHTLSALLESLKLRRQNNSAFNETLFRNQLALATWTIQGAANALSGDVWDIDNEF
Assay: ELISA on plate-coated cyno TfR1, unconjugated Fab
observable: Fab binding affinity ELISA
Units required after the number.

Sample humanized anti-TfR Fab 3M12 VH4/Vk2 (Fab, V domains shown) VH: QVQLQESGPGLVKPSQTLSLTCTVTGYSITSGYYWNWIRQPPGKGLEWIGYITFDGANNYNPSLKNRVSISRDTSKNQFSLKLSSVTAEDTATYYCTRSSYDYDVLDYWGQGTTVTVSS VL: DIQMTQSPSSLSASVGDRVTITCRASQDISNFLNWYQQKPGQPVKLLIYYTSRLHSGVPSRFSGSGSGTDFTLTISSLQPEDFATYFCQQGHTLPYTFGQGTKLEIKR — what was its Fab binding affinity ELISA? 1.4 nM

Follow-up entry: humanized anti-TfR Fab 3M12 VH3/Vk3 (Fab, V domains shown) VH: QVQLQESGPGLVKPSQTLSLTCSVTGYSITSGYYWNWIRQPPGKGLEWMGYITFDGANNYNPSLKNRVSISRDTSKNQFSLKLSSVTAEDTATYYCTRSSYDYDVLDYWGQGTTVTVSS VL: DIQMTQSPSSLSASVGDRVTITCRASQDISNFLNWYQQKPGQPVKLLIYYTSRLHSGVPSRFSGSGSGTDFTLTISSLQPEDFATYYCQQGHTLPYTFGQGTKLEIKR 4.7 nM

Follow-up entry: humanized anti-TfR Fab 5H12 VH5 (C33Y)/Vk3 (Fab, V domains shown) VH: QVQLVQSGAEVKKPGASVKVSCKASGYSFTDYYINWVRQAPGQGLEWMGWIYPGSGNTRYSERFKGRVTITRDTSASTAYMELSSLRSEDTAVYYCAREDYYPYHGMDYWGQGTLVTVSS VL: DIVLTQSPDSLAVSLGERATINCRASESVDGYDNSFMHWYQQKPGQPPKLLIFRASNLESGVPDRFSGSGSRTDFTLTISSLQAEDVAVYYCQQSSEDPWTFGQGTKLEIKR 2.1 nM
